system: Escherichia coli TOP10; experiment: shrunken log2 fold change of peptide-encoding DNA abundance (4.5 h post-induction vs induction); higher = less antimicrobial activity (less host growth inhibition); details: time post-induction: 4.5 h; library: site-saturation at positions 5, 18, 19, 20

{"columns": ["SEQUENCE_TEXT", "shrunken log2 fold change"],
 "data": [
  ["RRIRTRPPRLPRPRPRPVFTPRP", -0.105],
  ["RRIRLRPPRLPRPRPRPILIPRP", 0.198],
  ["RRIRMRPPRLPRPRPRPHGSPRP", 0.0248],
  ["RRIRLRPPRLPRPRPRPRVHPRP", 0.0142],
  ["RRIRRRPPRLPRPRPRPTYWPRP", -0.144],
  ["RRIRPRPPRLPRPRPRPMQMPRP", 0.00304],
  ["RRIRYRPPRLPRPRPRPTSPPRP", -0.0595],
  ["RRIRARPPRLPRPRPRPAKKPRP", -0.0777],
  ["RRIRCRPPRLPRPRPRPKGNPRP", -0.31],
  ["RRIRGRPPRLPRPRPRPPEEPRP", 1.5],
  ["RRIRRRPPRLPRPRPRPINMPRP", -0.271],
  ["RRIRMRPPRLPRPRPRPHVRPRP", 0.231],
  ["RRIRTRPPRLPRPRPRPTQYPRP", -0.207],
  ["RRIRCRPPRLPRPRPRPCSMPRP", -0.0191],
  ["RRIRSRPPRLPRPRPRPEWIPRP", 0.021],
  ["RRIRGRPPRLPRPRPRPHVHPRP", -0.332],
  ["RRIRKRPPRLPRPRPRPMNQPRP", -0.153],
  ["RRIRERPPRLPRPRPRPNDWPRP", -0.133],
  ["RRIRHRPPRLPRPRPRPLKPPRP", 0.18],
  ["RRIRWRPPRLPRPRPRPMSFPRP", 0.00806],
  ["RRIRYRPPRLPRPRPRPDKFPRP", -0.116],
  ["RRIRGRPPRLPRPRPRPDRMPRP", -0.107],
  ["RRIRFRPPRLPRPRPRPHTKPRP", -0.0159],
  ["RRIRMRPPRLPRPRPRPDGYPRP", 0.818],
  ["RRIRHRPPRLPRPRPRPIQHPRP", -0.237],
  ["RRIRARPPRLPRPRPRPHALPRP", 0.112],
  ["RRIRHRPPRLPRPRPRPSPFPRP", -0.199],
  ["RRIRVRPPRLPRPRPRPTRNPRP", 0.0987],
  ["RRIRQRPPRLPRPRPRPPIYPRP", -0.129],
  ["RRIRMRPPRLPRPRPRPPTIPRP", 0.301],
  ["RRIRGRPPRLPRPRPRPEWLPRP", 1.5],
  ["RRIRDRPPRLPRPRPRPRDFPRP", 0.106],
  ["RRIRYRPPRLPRPRPRPPVQPRP", -0.0548],
  ["RRIRGRPPRLPRPRPRPYDFPRP", -0.0968],
  ["RRIRERPPRLPRPRPRPFMFPRP", -0.531],
  ["RRIRHRPPRLPRPRPRPPNQPRP", -0.0151],
  ["RRIRFRPPRLPRPRPRPKGMPRP", -0.243],
  ["RRIRPRPPRLPRPRPRPLTFPRP", -0.113],
  ["RRIRPRPPRLPRPRPRPMLDPRP", 0.071],
  ["RRIRHRPPRLPRPRPRPQGKPRP", -0.0805],
  ["RRIRVRPPRLPRPRPRPRPQPRP", 0.365],
  ["RRIRLRPPRLPRPRPRPILSPRP", -0.0305],
  ["RRIRHRPPRLPRPRPRPYVLPRP", -0.14],
  ["RRIRRRPPRLPRPRPRPGPGPRP", 0.598],
  ["RRIRHRPPRLPRPRPRPRWYPRP", -0.137],
  ["RRIRTRPPRLPRPRPRPLYRPRP", 0.0015],
  ["RRIRRRPPRLPRPRPRPEWWPRP", -0.0131]
]}

----------
tested on: Escherichia coli TOP10; test: shrunken log2 fold change of peptide-encoding DNA abundance (4.5 h post-induction vs induction); higher = less antimicrobial activity (less host growth inhibition); settings: time post-induction: 4.5 h; library: site-saturation at positions 5, 18, 19, 20
# key: entry, value: shrunken log2 fold change

{"columns": ["SEQUENCE_TEXT", "shrunken log2 fold change"],
 "data": [
  ["RRIRNRPPRLPRPRPRPKCEPRP", -0.0549],
  ["RRIRVRPPRLPRPRPRPLHQPRP", 0.0791],
  ["RRIRIRPPRLPRPRPRPLPCPRP", -0.661],
  ["RRIRDRPPRLPRPRPRPKDPPRP", -0.00415],
  ["RRIRLRPPRLPRPRPRPFWLPRP", 0.0573],
  ["RRIRSRPPRLPRPRPRPRHSPRP", -0.356],
  ["RRIRTRPPRLPRPRPRPEMPPRP", -0.0682],
  ["RRIRPRPPRLPRPRPRPCFKPRP", -0.341],
  ["RRIRERPPRLPRPRPRPGVKPRP", -0.0766],
  ["RRIRGRPPRLPRPRPRPKTSPRP", 0.702],
  ["RRIRRRPPRLPRPRPRPNNWPRP", 0.612],
  ["RRIRVRPPRLPRPRPRPCNKPRP", -0.311],
  ["RRIRMRPPRLPRPRPRPNFQPRP", -0.0246],
  ["RRIRARPPRLPRPRPRPPACPRP", 0.817],
  ["RRIRYRPPRLPRPRPRPQTIPRP", -0.0196],
  ["RRIRLRPPRLPRPRPRPGITPRP", -0.322],
  ["RRIRDRPPRLPRPRPRPALYPRP", 0.468],
  ["RRIRRRPPRLPRPRPRPHGVPRP", 0.055],
  ["RRIRRRPPRLPRPRPRPDPLPRP", 0.119],
  ["RRIRYRPPRLPRPRPRPALSPRP", -0.0367],
  ["RRIRGRPPRLPRPRPRPPVHPRP", 0.644],
  ["RRIRARPPRLPRPRPRPTWEPRP", 1.02],
  ["RRIRRRPPRLPRPRPRPDTYPRP", -0.193],
  ["RRIRGRPPRLPRPRPRPDFQPRP", 1.01],
  ["RRIRDRPPRLPRPRPRPTAPPRP", 0.365]
]}

----------
tested on: Escherichia coli TOP10; experiment: shrunken log2 fold change of peptide-encoding DNA abundance (4.5 h post-induction vs induction); higher = less antimicrobial activity (less host growth inhibition); settings: time post-induction: 4.5 h; library: site-saturation at positions 5, 18, 19, 20

{"columns": ["SEQUENCE_TEXT", "shrunken log2 fold change"],
 "data": [
  ["RRIRMRPPRLPRPRPRPFDRPRP", 0.00911],
  ["RRIRGRPPRLPRPRPRPEWKPRP", 1.3],
  ["RRIRRRPPRLPRPRPRPYEIPRP", -0.39],
  ["RRIRTRPPRLPRPRPRPWISPRP", -0.0102],
  ["RRIRERPPRLPRPRPRPNGFPRP", 0.0354],
  ["RRIRARPPRLPRPRPRPDLEPRP", 0.0744],
  ["RRIRMRPPRLPRPRPRPRMYPRP", -0.0804],
  ["RRIRTRPPRLPRPRPRPWTRPRP", 0.064],
  ["RRIRKRPPRLPRPRPRPKWMPRP", -0.168],
  ["RRIRPRPPRLPRPRPRPHKDPRP", -0.339],
  ["RRIRYRPPRLPRPRPRPFGAPRP", -0.391],
  ["RRIRIRPPRLPRPRPRPEMKPRP", -0.037],
  ["RRIRMRPPRLPRPRPRPELIPRP", 3.16]
]}

----------
# key: entry, value: shrunken log2 fold change
tested on: Escherichia coli TOP10; assay: shrunken log2 fold change of peptide-encoding DNA abundance (4.5 h post-induction vs induction); higher = less antimicrobial activity (less host growth inhibition); conditions: time post-induction: 4.5 h; library: site-saturation at positions 5, 18, 19, 20;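 further: peptides expressed intracellularly from a pBAD plasmid library in pooled LB shake-flask culture, induced with 0.3% L-arabinose, DNA abundance read by NGS, three biological replicates, DESeq2 with apeglm shrinkage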

{"columns": ["SEQUENCE_TEXT", "shrunken log2 fold change"],
 "data": [
  ["RRIRPRPPRLPRPRPRPWLQPRP", -0.064],
  ["RRIRARPPRLPRPRPRPNLNPRP", -0.0397],
  ["RRIRKRPPRLPRPRPRPNCWPRP", 0.621],
  ["RRIRRRPPRLPRPRPRPMTEPRP", 0.0575],
  ["RRIRGRPPRLPRPRPRPSYEPRP", 0.0732],
  ["RRIRTRPPRLPRPRPRPPARPRP", 0.546],
  ["RRIRVRPPRLPRPRPRPYGDPRP", -0.168],
  ["RRIRDRPPRLPRPRPRPTAYPRP", -0.22]
]}
